Entry source: paper PMC9482650

tested.target: MAGI2_4, Q86UL8
Sequence (Q86UL8 772-865): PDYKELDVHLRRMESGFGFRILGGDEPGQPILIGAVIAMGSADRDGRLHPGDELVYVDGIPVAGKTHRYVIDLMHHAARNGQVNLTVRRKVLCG
assay.overview: holdup assay
Design: key: below the threshold = too weak to quantify, mostly under pKd 3.1 to 4
run.conditions: plain residues with an end cap or a label only (N-terminal biotin on a linker: ado-ado)
measured.endpoint: pKd
Answer field: number only, no words.

The cases that follow already have their pKd on record.
{"columns": ["binder", "pKd"],
 "data": [
  ["TACCHSETVV [TGFA, P01135]", 4.4],
  ["QSLNRMEYIV [JAG1, P78504]", 3.87],
  ["QGPVETESVV [SLC45A4, Q5BKX6]", 3.76],
  ["PAPSSGKDYV [CLDN1, O95832]", 3.54],
  ["LPHGHSTTRV [NLGN4X, Q8N0W4]", 3.91],
  ["FNSYSLTGYV [CLDN2, P57739]", 4.24]
]}

Ask | What pKd value was documented for this binder, SAKVRTVTSV [RASL11B, Q9BPW5] ?
Reply | 4.19

Ask | For the binder EVNETDDTKM [KCNJ1, P48048] , what pKd is on record?
Reply | 3.63
